Source: the Human Domainome abundance scans (Beltran et al. 2025)

B1: Chromodomain-helicase-DNA-binding protein 3, residues 374 to 426; numbered along this chain, Q12873 (parent)
chain: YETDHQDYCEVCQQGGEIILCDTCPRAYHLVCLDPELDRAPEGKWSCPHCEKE

Variants of: B1
TEST: abundance fitness (aPCA) (normalised: wild type 0, dead -1); higher = more abundant; growth selection in yeast, the domain comes from the species named
CONDITION_INFO: Homo sapiens
Each entry gets f if its abundance fitness stays under -0.04, and t if its abundance fitness is -0.04 or above.

Worked set:
[
  {
    "VARIANT_DESIGNATION": "T23L",
    "CLASSIFICATION": "f"
  },
  {
    "VARIANT_DESIGNATION": "L30P",
    "CLASSIFICATION": "t"
  },
  {
    "VARIANT_DESIGNATION": "G16L",
    "CLASSIFICATION": "f"
  }
]

Query: Could you tell me if the measured abundance fitness of `Q14G` reaches -0.04 or more?
Response: f

Query: Kindly determine if abundance fitness recorded for `Y8E` is above or exactly -0.04.
Response: t

Query: Reported abundance fitness reaches at least -0.04 for `H5A` ?
Response: t

Query: Determine whether this variant has abundance fitness no lower than -0.04: `E17H`
Response: f

Query: Test whether the variant `L30M` records abundance fitness of -0.04 or higher.
Response: t

Query: Can `L30T` be said to have abundance fitness at or above -0.04?
Response: f
